The values you see were collected from patent US6737383B1.

- System: sugar beet
- Assay details: Test B pre/postemergence sugar beet
- Assay type: in vivo, Beta vulgaris
- Assay context: Preemergence, Rate 250 g/ha
Measured Sugarbeets plant response rating (0 to 10 scale) by item
Reported property: Sugarbeets plant response rating (0 to 10 scale)

[
  {
    "Mol": "CCOCn1c(=O)on(C(=O)N(c2ccc(Cl)cc2)C(C)C)c1=O",
    "Value": 6
  },
  {
    "Mol": "CCCCCCn1c(=O)on(C(=O)N(c2ccccc2)C(C)C)c1=O",
    "Value": 0
  },
  {
    "Mol": "COCCOCn1c(=O)on(C(=O)N(c2ccccc2)C(C)C)c1=O",
    "Value": 3
  },
  {
    "Mol": "COC(=O)CCCn1c(=O)on(C(=O)N(c2ccc(Cl)cc2)C(C)C)c1=O",
    "Value": 6
  }
]

* * *

- Test system: blackgrass
- Assay details: Test B pre/postemergence blackgrass
- Format: in vivo, Alopecurus myosuroides
- Assay context: Preemergence, Rate 500 g/ha; scale 0 to 10 (0 no effect, 10 complete control)
API: label(entry) gives True if the entry's Blackgrass plant response rating is strictly smaller than 6; on equality or larger values it gives False.

[
  {
    "Molecule": "CCN(Cc1ccncc1)C(=O)n1oc(=O)n(C(C)C)c1=O [Compound 189]",
    "Class name": "False"
  },
  {
    "Molecule": "CC(C)N(C(=O)n1oc(=O)n(C(C)(C)C)c1=O)c1ccccc1 [Compound 129]",
    "Class name": "True"
  },
  {
    "Molecule": "CCN(C(=O)n1oc(=O)n(C(C)C)c1=O)c1nncs1 [Compound 190]",
    "Class name": "True"
  },
  {
    "Molecule": "C=CCn1c(=O)on(C(=O)N(c2ccc(F)cc2)C(C)C)c1=O [Compound 146]",
    "Class name": "False"
  }
]

* * *

- System: rape
- Assay details: Test B pre/postemergence rape
- Assay type: in vivo, Brassica napus
- Assay context: Rate 125 g/ha, Postemergence; scale 0 to 10
Reported property: Rape plant response rating

[
  {
    "Compound": "CCN(C(=O)n1oc(=O)n(C)c1=O)C1CCCCC1",
    "Target or system": "rape",
    "Value": 0
  },
  {
    "Compound": "Cc1nc(C)c(-n2c(=O)on(C(=O)N(c3ccccc3)C(C)C)c2=O)s1",
    "Target or system": "rape",
    "Value": 0
  },
  {
    "Compound": "CC(C)N(C(=O)n1oc(=O)n(C2CCCC(C(F)(F)F)C2)c1=O)c1ccc(F)cc1 (stereo not shown)",
    "Target or system": "rape",
    "Value": 2
  },
  {
    "Compound": "CCN(C(=O)n1oc(=O)n(N(C)c2ccccc2)c1=O)C1CCCCC1",
    "Target or system": "rape",
    "Value": 0
  }
]

* * *

- System: sugar beet
- Assay details: Test B pre/postemergence sugar beet
- Assay type: in vivo, Beta vulgaris
- Assay context: Preemergence, Rate 500 g/ha; scale of 0 to 10 where 0 is no effect and 10 is complete control

[
  {
    "Mol": "CC(C)N(C(=O)n1oc(=O)n(Cc2nnc(Cl)s2)c1=O)c1ccc(F)cc1",
    "Plant response rating, Sugarbeets": 0
  },
  {
    "Mol": "CC(C)N(C(=O)n1oc(=O)n(Cc2nnc(Cl)s2)c1=O)c1ccc(Cl)cc1",
    "Plant response rating, Sugarbeets": 0
  },
  {
    "Mol": "CC(C)N(C(=O)n1oc(=O)n(Cc2nnc(Cl)s2)c1=O)c1ccc(F)cc1F",
    "Plant response rating, Sugarbeets": 0
  }
]

* * *

- Test system: crabgrass
- Assay details: Test B pre/postemergence crabgrass
- Type: in vivo, Digitaria sanguinalis
- Assay context: Preemergence, Rate 125 g/ha; scale of 0 to 10 where 0 is no effect and 10 is complete control
Reported property: Plant response rating, Crabgrass

[
  {
    "Molecule": "CC(C)N(C(=O)n1oc(=O)n(C(CF)CF)c1=O)c1ccccc1",
    "Value": 8
  },
  {
    "Molecule": "CC(C)N(C(=O)n1oc(=O)n(CC2CCC2)c1=O)c1ccc(F)cc1",
    "Value": 10
  },
  {
    "Molecule": "Cc1nc(Cl)sc1C(C)n1c(=O)on(C(=O)N(c2ccc(F)cc2F)C(C)C)c1=O (centres unmarked)",
    "Value": 1
  },
  {
    "Molecule": "CCOC(=O)CC(C(=O)OCC)n1c(=O)on(C(=O)N(c2ccc(Cl)cc2)C(C)C)c1=O (centres unmarked)",
    "Value": 0
  },
  {
    "Molecule": "CC(C)N(C(=O)n1oc(=O)n(C(C)C2CCC2)c1=O)c1ccc(F)cc1F (centres unmarked)",
    "Value": 10
  }
]

* * *

Measured Wild oats plant response rating (0 to 10 scale) by item
- System: wild oat
- Assay details: Test B pre/postemergence wild oat
- Format: in vivo, Avena fatua
- Assay context: Preemergence, Rate 125 g/ha; 0 is no effect, 10 is complete control
Reported property: Wild oats plant response rating (0 to 10 scale)

[
  {
    "Mol": "CC(C)N(C(=O)n1oc(=O)n(Cc2ccccc2)c1=O)c1ccccc1",
    "Value": 3
  },
  {
    "Mol": "CN(C(=O)n1oc(=O)n(Cc2ccccc2)c1=O)c1ccccc1",
    "Value": 0
  },
  {
    "Mol": "COc1ccccc1Cn1c(=O)on(C(=O)N(c2ccc(F)cc2)C(C)C)c1=O",
    "Value": 5
  },
  {
    "Mol": "CC(C)N(C(=O)n1oc(=O)n(C(C)C)c1=O)c1ccc(F)cc1F",
    "Value": 10
  }
]

* * *

Measured Soybean plant response rating by item
- Tested on: soybean
- Assay details: Test B pre/postemergence soybean
- Type: in vivo, Glycine max
- Assay context: Preemergence, Rate 62 g/ha; scale of 0 to 10 where 0 is no effect and 10 is complete control
Reported property: Soybean plant response rating

[
  {
    "Compound": "CC(C)N(C(=O)n1oc(=O)n(CC2CO2)c1=O)c1ccc(F)cc1 (centres unmarked) [Compound 188]",
    "Target or system": "soybean",
    "Reported property": "Soybean plant response rating",
    "Value": 0
  },
  {
    "Compound": "CCn1ncc(Cn2c(=O)on(C(=O)N(c3ccccc3)C(C)C)c2=O)c1Cl [Compound 683]",
    "Target or system": "soybean",
    "Reported property": "Soybean plant response rating",
    "Value": 0
  },
  {
    "Compound": "CC(C)N(C(=O)n1oc(=O)n(C(C)C2CCC2)c1=O)c1ccc(F)cc1F (centres unmarked) [Compound 702]",
    "Target or system": "soybean",
    "Reported property": "Soybean plant response rating",
    "Value": 0
  },
  {
    "Compound": "CCN(C(=O)n1oc(=O)n(N(C)C)c1=O)C1CCCCC1 [Compound 274]",
    "Target or system": "soybean",
    "Reported property": "Soybean plant response rating",
    "Value": 0
  },
  {
    "Compound": "CC(C)N(C(=O)n1oc(=O)n(Cc2nnc(Cl)s2)c1=O)c1ccc(F)cc1F [Compound 645]",
    "Target or system": "soybean",
    "Reported property": "Soybean plant response rating",
    "Value": 0
  },
  {
    "Compound": "CC(C)N(C(=O)n1oc(=O)n(C(C)C2CC2)c1=O)c1ccc(Cl)cc1 (centres unmarked) [Compound 700]",
    "Target or system": "soybean",
    "Reported property": "Soybean plant response rating",
    "Value": 0
  },
  {
    "Compound": "CCN(C(=O)n1oc(=O)n(N(C)c2ccccc2)c1=O)C1CCCCC1 [Compound 183]",
    "Target or system": "soybean",
    "Reported property": "Soybean plant response rating",
    "Value": 0
  },
  {
    "Compound": "COc1nc(OC)nc(N(C(=O)n2oc(=O)n(-c3c(C)cccc3C)c2=O)C(C)C)n1 [Compound 180]",
    "Target or system": "soybean",
    "Reported property": "Soybean plant response rating",
    "Value": 0
  }
]

* * *

Measured Sugarbeets plant response rating by item
- Test system: sugar beet
- Assay details: Test B pre/postemergence sugar beet
- Format: in vivo, Beta vulgaris
- Assay context: Preemergence, Rate 250 g/ha; scale of 0 to 10 where 0 is no effect and 10 is complete control

[
  {
    "Compound": "CCOC(=O)C(C)N(C(=O)n1oc(=O)n(C(C)C)c1=O)c1ccc(F)cc1 (stereo not drawn) [Compound 302]",
    "Sugarbeets plant response rating": 2
  },
  {
    "Compound": "COCC(C)N(C(=O)n1oc(=O)n(-c2ccccc2C)c1=O)c1ccc(F)cc1 (stereo not drawn) [Compound 324]",
    "Sugarbeets plant response rating": 0
  },
  {
    "Compound": "CC(C)N(C(=O)n1oc(=O)n(CCc2ccccc2)c1=O)c1ccc(F)cc1 [Compound 250]",
    "Sugarbeets plant response rating": 5
  },
  {
    "Compound": "CC(Cl)=CCn1c(=O)on(C(=O)N(c2ccc(F)cc2)C(C)C)c1=O [Compound 285]",
    "Sugarbeets plant response rating": 0
  },
  {
    "Compound": "CCN(C(=O)n1oc(=O)n(C)c1=O)C1CCCCC1 [Compound 228]",
    "Sugarbeets plant response rating": 0
  },
  {
    "Compound": "Cc1noc(C)c1Cn1c(=O)on(C(=O)N(c2ccc(F)cc2)C(C)C)c1=O [Compound 259]",
    "Sugarbeets plant response rating": 0
  }
]
